# ASSAY_NOTES: self-splicing fitness, log relative to wild type (ln ratio); higher = more splicing; Tetrahymena group I intron in knt gene, E. coli kanamycin selection, DiMSum; sequences stand for … in CUCUCU…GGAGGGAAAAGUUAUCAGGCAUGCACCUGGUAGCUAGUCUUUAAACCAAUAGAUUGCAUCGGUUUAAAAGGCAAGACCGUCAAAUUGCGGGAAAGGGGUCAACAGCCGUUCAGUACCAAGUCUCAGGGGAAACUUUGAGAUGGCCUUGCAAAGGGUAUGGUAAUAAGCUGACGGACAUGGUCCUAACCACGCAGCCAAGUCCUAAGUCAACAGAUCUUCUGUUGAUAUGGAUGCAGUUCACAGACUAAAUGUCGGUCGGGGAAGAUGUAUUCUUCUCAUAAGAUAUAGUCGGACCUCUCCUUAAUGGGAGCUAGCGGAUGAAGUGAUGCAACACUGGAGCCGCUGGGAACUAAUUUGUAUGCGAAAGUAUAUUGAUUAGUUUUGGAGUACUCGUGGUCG;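 also: selection with 25 µg/mL kanamycin versus none on LB agar overnight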
# PARTICULARS: 37 °C
Classification field: enter Y for self-splicing fitness (ln) values not below -2, N for values below it.

- UAAAAGCAAUAUUACGGCCG: Y
- AGCGAGCAAUAUUACGACUU: Y
- UAGAAGCAAUAUUACGGAUC: Y
- CCUUAGCAAUAUUACGGGGG: Y
- GAAGAGCAAUAUUACGACUG: Y
- CGCAAGCAAUAUUACGGACU: Y
- CACUAGCAAUAUUACGAUAU: N
- UCUAAGCAAUAUUACGAAUA: Y

Does self-splicing fitness (ln) meet or surpass -2 for AGUUAGCAAUAUUACGAUCA ?
Y

Does self-splicing fitness (ln) meet or surpass -2 for UCGAAGCAAUAUUACGUGGC ?
N

Does self-splicing fitness (ln) meet or surpass -2 for GUCGAGCAAUAUUACGGGUG ?
N

Does self-splicing fitness (ln) meet or surpass -2 for AAUGAGCAAUAUUACGCCGG ?
N

Does self-splicing fitness (ln) meet or surpass -2 for GGCAAGCAAUAUUACGUAGU ?
Y

---

# ASSAY_NOTES: self-splicing fitness, log relative to wild type (ln ratio); higher = more splicing; Tetrahymena group I intron in knt gene, E. coli kanamycin selection, DiMSum; sequences stand for … in CUCUCU…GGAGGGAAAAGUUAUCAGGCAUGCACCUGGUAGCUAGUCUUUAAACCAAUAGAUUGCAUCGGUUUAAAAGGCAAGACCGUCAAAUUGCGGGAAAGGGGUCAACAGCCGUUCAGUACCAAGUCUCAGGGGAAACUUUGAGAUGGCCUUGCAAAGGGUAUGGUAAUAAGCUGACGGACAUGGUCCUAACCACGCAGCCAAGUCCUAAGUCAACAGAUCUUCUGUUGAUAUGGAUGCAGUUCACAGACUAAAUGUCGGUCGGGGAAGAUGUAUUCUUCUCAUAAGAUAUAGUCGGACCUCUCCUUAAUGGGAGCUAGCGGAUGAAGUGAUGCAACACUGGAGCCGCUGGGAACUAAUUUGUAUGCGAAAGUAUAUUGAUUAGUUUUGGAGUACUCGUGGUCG
# PARTICULARS: 37 °C
READOUT_LABEL: self-splicing fitness (ln)

• CCCAAGCAAUAUUACGGGCG = -1.79
• CAGGAGCAAUAUUACGCGGU = -3.29
• AGCUAGCAAUAUUACGGACA = 0.0203

API: the following record is the query input.
Name the recorded self-splicing fitness (ln) for UGCUAGCAAUAUUACGGGCU .
-1.89
